Source listed as patent US9688764B2.

Items are presented alongside their recorded T½.
Test system: mfPRLR.mmh (monomeric macaca fascicularis PRLR)
Sequence (as listed by the source): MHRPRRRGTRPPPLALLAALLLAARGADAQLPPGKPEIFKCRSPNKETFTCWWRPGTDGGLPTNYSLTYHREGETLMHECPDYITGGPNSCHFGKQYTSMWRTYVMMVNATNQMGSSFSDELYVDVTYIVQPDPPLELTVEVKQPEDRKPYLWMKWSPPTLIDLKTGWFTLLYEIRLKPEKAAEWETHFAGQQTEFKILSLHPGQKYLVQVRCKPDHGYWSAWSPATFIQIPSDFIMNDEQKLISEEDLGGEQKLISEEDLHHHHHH
Test: Surface plasmon resonance (Biacore T200), mAb-capture format
Format: binding
Settings: 25° C., antibody-capture format, analyte mfPRLR.mmh
Unit min implied. Number only.

| MOLECULE | VALUE UNIT | T½ |
| --- | --- | --- |
| H1H6792P: anti-PRLR antibody, human IgG1 Fc; HCVR/LCVR SEQ ID NOs 130/138 (antibody, V domains shown, human IgG1 Fc) VH: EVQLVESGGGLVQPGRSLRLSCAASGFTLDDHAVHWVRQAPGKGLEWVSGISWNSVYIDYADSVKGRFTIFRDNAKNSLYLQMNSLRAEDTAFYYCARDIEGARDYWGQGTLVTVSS VL: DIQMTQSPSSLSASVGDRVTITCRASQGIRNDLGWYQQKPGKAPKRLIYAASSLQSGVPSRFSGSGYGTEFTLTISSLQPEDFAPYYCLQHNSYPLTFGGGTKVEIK | min | 12 |
| H1H6785P: anti-PRLR antibody, human IgG1 Fc; HCVR/LCVR SEQ ID NOs 98/106 (antibody, V domains shown, human IgG1 Fc) VH: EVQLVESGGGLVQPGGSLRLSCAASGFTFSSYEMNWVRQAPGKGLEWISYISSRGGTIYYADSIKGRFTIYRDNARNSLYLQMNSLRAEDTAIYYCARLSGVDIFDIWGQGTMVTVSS VL: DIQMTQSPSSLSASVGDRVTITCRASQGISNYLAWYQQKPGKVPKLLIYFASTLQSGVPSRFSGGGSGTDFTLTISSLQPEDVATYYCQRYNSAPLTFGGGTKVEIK | min | 69 |

Prompt line: Which T½ is reported for this molecule? H1H6782P: anti-PRLR antibody, human IgG1 Fc; HCVR/LCVR SEQ ID NOs 66/74; non-blocking (antibody, V domains shown, human IgG1 Fc) VH: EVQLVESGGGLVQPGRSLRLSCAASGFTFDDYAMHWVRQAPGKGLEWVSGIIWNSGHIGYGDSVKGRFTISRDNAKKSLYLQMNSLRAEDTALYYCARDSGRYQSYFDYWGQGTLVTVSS VL: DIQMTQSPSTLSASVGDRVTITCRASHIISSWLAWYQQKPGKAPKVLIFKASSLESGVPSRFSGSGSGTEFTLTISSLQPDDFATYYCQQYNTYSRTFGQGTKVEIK
Response line: 41

Prompt line: Then this molecule: H1H6953N: human IgG1 Fc form of H1M6953N; anti-PRLR; HCVR/LCVR SEQ ID NOs 274/282 (antibody, V domains shown, human IgG1 Fc) VH: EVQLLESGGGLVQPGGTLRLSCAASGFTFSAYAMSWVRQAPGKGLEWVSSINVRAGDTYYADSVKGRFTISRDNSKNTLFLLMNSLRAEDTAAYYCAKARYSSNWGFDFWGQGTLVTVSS VL: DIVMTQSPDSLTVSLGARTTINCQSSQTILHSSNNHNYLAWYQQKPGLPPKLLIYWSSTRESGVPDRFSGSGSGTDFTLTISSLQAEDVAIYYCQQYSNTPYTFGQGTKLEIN
Response line: 36.3

Prompt line: Can you handle H1H6762P: anti-PRLR antibody, human IgG1 Fc; HCVR/LCVR SEQ ID NOs 2/10 (antibody, V domains shown, human IgG1 Fc) VH: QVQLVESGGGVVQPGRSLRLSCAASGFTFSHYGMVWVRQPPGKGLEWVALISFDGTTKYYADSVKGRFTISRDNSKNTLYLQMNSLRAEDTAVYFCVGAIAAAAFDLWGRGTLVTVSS VL: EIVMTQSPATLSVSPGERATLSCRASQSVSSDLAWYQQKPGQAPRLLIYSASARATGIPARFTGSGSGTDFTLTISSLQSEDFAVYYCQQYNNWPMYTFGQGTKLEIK next?
Response line: 55
